Recorded values, source PubChem BioAssay (EPA / NIEHS).

# assay_method_text: CCTE_Shafer_MEA_dev_network_spike_peak: CCTE's Neural Network Formation Assay for Mean Number of Electrodes in Network Spike, Shafer Lab (AID 2284049)
# Experimental: CCTE_Shafer_MEA_dev assay is conducted using Axion Biosystems 48 well microelectrode array (MEA) plates and Maestro recording system. Each well of the MEA plate contains a grid of 16 microelectrodes embedded in the culture surface. Electrically active cells, such as neurons, can be cultured over the electrodes, and electrical activity in these cells can be recorded extracellularly. […]
The source made the active and inactive calls. How the source made its calls: active means hit-call score of the fitted dose curve at least 0.9, where 1 is the maximum; inactive means score below 0.9.
Labels: 1 for active, -1 for inactive

- compound: "CC(O)CO (centres undefined)"
  assigned_class: -1
- compound: "OCCC(F)(F)C(F)(F)C(F)(F)C(F)(F)C(F)(F)C(F)(F)C(F)(F)C(F)(F)F"
  assigned_class: 1
- compound: "C=C(C)C(=O)OCCC(F)(F)C(F)(F)C(F)(F)C(F)(F)C(F)(F)C(F)(F)F"
  assigned_class: -1
- compound: "c1ccc2cc3c(ccc4ccccc43)cc2c1"
  assigned_class: 1

----------
# experimental_target: Estrogen receptor (Homo sapiens) (UniProt P03372)
# Sequence (P03372 whole entry, looked up): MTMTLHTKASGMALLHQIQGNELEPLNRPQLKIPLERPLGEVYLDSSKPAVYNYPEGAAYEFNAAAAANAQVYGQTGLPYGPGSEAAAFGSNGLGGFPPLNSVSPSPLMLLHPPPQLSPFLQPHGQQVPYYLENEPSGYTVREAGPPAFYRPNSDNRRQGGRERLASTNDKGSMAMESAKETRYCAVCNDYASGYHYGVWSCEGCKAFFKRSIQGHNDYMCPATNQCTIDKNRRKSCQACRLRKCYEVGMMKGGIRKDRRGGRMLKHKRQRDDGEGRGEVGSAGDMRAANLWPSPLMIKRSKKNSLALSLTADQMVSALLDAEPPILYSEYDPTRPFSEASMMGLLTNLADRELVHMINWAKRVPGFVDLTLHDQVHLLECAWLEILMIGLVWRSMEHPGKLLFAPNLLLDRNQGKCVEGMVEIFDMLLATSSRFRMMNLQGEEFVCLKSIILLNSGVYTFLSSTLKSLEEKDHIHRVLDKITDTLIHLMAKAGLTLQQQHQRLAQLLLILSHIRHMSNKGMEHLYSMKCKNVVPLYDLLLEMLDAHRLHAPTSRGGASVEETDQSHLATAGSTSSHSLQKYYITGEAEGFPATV
# assay_method_text: ATG_ERa_TRANS: Attagene TRANS-FACTORIAL HepG2 Assay for human Estrogen Receptor alpha (ERa) (AID 2282970)
# experimental_conditions: HepG2 Attagene TRANS ERa GAL4 reporter, mRNA
Results filed as inconclusive are left out. The source made the active and inactive calls. The calls were made as follows: active = hit-call score of the fitted dose curve at least 0.9, where 1 is the maximum; inconclusive = response in the unintended direction; inactive = score below 0.9.
Outcomes: active, inactive

- compound: "COc1ccc([N+](=O)[O-])cc1N"
  assigned_class: "inactive"
- compound: "Cc1oc(-c2ccccc2)nc1CCOc1ccc(C[C@H](Nc2ccccc2C(=O)c2ccccc2)C(=O)O)cc1"
  assigned_class: "inactive"
- compound: "N#C[C@@H]1CC(F)(F)CN1C(=O)CNC1CC2CCC(C1)N2c1ncccn1 (stereo partly drawn)"
  assigned_class: "inactive"
- compound: "c1ccc2c(c1)Cc1ccccc1-2"
  assigned_class: "active"
- compound: "CC(O)C(=O)O (stereo not drawn)"
  assigned_class: "inactive"
- compound: "CCCCCCCC(=O)O"
  assigned_class: "inactive"
- compound: "FC(F)(I)C(F)(F)C(F)(F)C(F)(F)C(F)(F)C(F)(F)I"
  assigned_class: "active"
- compound: "NC(=O)N(O)[C@@H]1C=C[C@H](Oc2cccc(Oc3ccc(F)cc3)c2)C1"
  assigned_class: "active"
- compound: "Cc1cc(CCN2CCN(c3nsc4ccccc34)CC2)cc2c1NC(=O)CC2(C)C"
  assigned_class: "inactive"
- compound: "O=[N+]([O-])c1ccc(O)cc1"
  assigned_class: "inactive"
- compound: "CCCCC(CC)COC(=O)CCCCC(=O)OCC(CC)CCCC (stereo not drawn)"
  assigned_class: "inactive"
- compound: "c1ccc2c(c1)ccc1ccccc12"
  assigned_class: "inactive"
- compound: "Nc1cccc2c(N)cccc12"
  assigned_class: "inactive"
- compound: "CCN(CC)CCNc1ccc(CNC=O)c2sc3ccc(OC)cc3c(=O)c12"
  assigned_class: "active"
- compound: "CCCCC[C@H](O)CC(=O)CCc1ccc(O)c(OC)c1"
  assigned_class: "inactive"
- compound: "CCCCCCCCCCCCN1CCCC1=O"
  assigned_class: "inactive"
- compound: "CCCCOCCO"
  assigned_class: "inactive"
- compound: "Oc1cc2ccccc2c2ccccc12"
  assigned_class: "inactive"
- compound: "Cc1ccc(S(=O)(=O)O)c(C)c1"
  assigned_class: "inactive"
- compound: "OCCC(F)(F)C(F)(F)C(F)(F)C(F)(F)C(F)(F)C(F)(F)F"
  assigned_class: "inactive"
- compound: "CN1CCN(c2ccccc2/C=C2\\SCCN(c3ccc(Cl)c(Cl)c3)C2=O)CC1"
  assigned_class: "inactive"
- compound: "CCc1ccc(CCOc2ccc(CC3SC(=O)NC3=O)cc2)nc1 (stereo not drawn)"
  assigned_class: "inactive"
- compound: "CCCCCCCCC(=O)O"
  assigned_class: "inactive"
